Test system: HepG2 cell line
assayInfo: In vitro toxicity study on HepG2 cell line (resazurin, viability and IC50)
Format: cell-based, human
experimentalParameters: HepG2 cells, 12.5 μM lipid, 48 h post-treatment, resazurin, relative to ethanol vehicle controls
parameterMeasured: Viability (%) at different lipid concentrations, mean
Give just the number in %; leave the unit off.

Look up and report measured Viability (%) at different lipid concentrations, mean for this entry: CCCCC/C=C\C/C=C\CCCCCCCCOC(CCCCCCC/C=C\C/C=C\CCCCC)O[Si](C)(C)OCCCCCCN(C)CCCCO (stereo not drawn) [Example 60]
99.3

Look up and report measured Viability (%) at different lipid concentrations, mean for this entry: CCCCC/C=C\C/C=C\CCCCCCCCOC(CCCCCCC/C=C\C/C=C\CCCCC)O[Si](C)(C)OCCCCCCN(C)C (stereo not drawn) [Example 79]
98.88

Look up and report measured Viability (%) at different lipid concentrations, mean for this entry: CCCCC/C=C\C/C=C\CCCCCCCCOC(CCCCCCC/C=C\CCCCCCCC)O[Si](C)(C)OCCCCCCN(CCO)CCO (stereo not drawn) [Example 46]
100.6

Look up and report measured Viability (%) at different lipid concentrations, mean for this entry: CCCCCCCC/C=C\CCCCCCCCOC(=O)C(C)(C)CCC(OCCCCCCCC/C=C\CCCCCCCC)O[Si](C)(C)OCCCCCCN(CCO)CCO (stereo not drawn) [Example 94]
96.6

Look up and report measured Viability (%) at different lipid concentrations, mean for this entry: CCCCCCCCCCCOC(=O)CCCCCN(CCO)CCCCCCCC(=O)OC(CCCCCCCC)CCCCCCCC [SM-102, reference compound]
101.5

Look up and report measured Viability (%) at different lipid concentrations, mean for this entry: CCCCCCCC/C=C\CCCCCCCCOC(=O)C(C)(C)CC(OCCCCCCCC/C=C\CCCCCCCC)O[Si](C)(C)OCCCCCCN(C)CC(O)CO (stereo not drawn) [Example 92]
104.3
